Cited source: PubChem BioAssay

assay: mitochondrial membrane potential change in A549 cells, profiling panel, cell-based, JC-1 fluorescence, basal, 24 h, 100 nL (AID 1138); conditions: higher = more signal;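 note: A549 lung adenocarcinoma cells under basal conditions with no added stimulus; test concentration not given here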
Entries and their z-score
Metric Name: z-score

- COCCOC(=O)N1C(=O)[C@@]2(c3cc(C#CC4(O)CCCCCC4)ccc31)[C@H](C(N)=O)[C@H]1C(=O)O[C@H](c3ccccc3)[C@H](c3ccccc3)N1[C@@H]2c1ccccc1OCCO: -0.994
- COCCCNC(=O)[C@]1(CCC(=O)OC(C)(C)C)N=C(c2ccc(OCCCO)cc2)O[C@@H]1c1ccccc1: 0.229
- CCCC=C(CCC)[C@@H](NP(=O)(c1ccccc1)c1ccccc1)c1ccc(C(F)(F)F)cc1: 0.365
- COCCOC(=O)N1C(=O)[C@@]2(c3cc(C#CC4=CCCCC4)ccc31)[C@H](C(=O)N1CCN(c3ncccn3)CC1)[C@H]1C(=O)O[C@H](c3ccccc3)[C@H](c3ccccc3)N1[C@@H]2c1ccc(O)cc1: -1.05
- COCCOC(=O)N1C(=O)[C@@]2(c3cc(C#CCNC(N)=O)ccc31)[C@H](C(=O)N1CCCCCCC1)[C@H]1C(=O)O[C@H](c3ccccc3)[C@H](c3ccccc3)N1[C@@H]2c1ccc(O)cc1: -0.606
- CN1C(=O)C2C=CC(C(O)c3c(F)cccc3Cl)N(Nc3ccccc3)C2C1=O (centres undefined): 1.14
- CC(C)OC(=O)CC(=O)CC(O)c1cccc(C#N)c1 (centres undefined): 0.67
- CCOC(=O)C[C@H]1[C@H](OC(=O)Cc2ccc3c(c2)OCO3)[C@@H](NC(=O)C2CCCCC2)c2cc(OCCCO)ccc2N1C(=O)c1ccc2ccccc2n1: -0.678
- COc1ccc(NN2C(C(O)c3ccco3)C=CC3C(=O)N(C4CCCCC4)C(=O)C32)cc1 (centres undefined): 0.265
- CCOC(=O)C[C@H]1[C@H](OC(=O)c2ccc(-c3ccccc3)cc2)[C@@H](NC(=O)c2ccc3ccccc3n2)c2cc(OCCCO)ccc2N1C(=O)c1ccccc1: -0.332
- [N-]=[N+]=Nc1ccccc1[C@@H]1OC(c2ccc(OCCCO)cc2)=N[C@]1(CCS(=O)(=O)c1ccccc1)C(=O)NCCN1CCOCC1: -0.377
- COc1ccc([Si](C)(C)[C@H]2[C@H](CCO)O[C@@]3(C(=O)N(Cc4cccc(N5CCCCC5=O)c4)c4ccccc43)[C@@H]2C)cc1: 0.589
- C=CC[C@H](OC(=O)Nc1ccc(OC)cc1)c1ccc(O)c2ccccc12: -1.43
- C[C@]1(C(=O)NC2CC2)c2ccccc2C(=O)N(Cc2ccc(OC(F)(F)F)cc2)[C@H]1c1ccc(CO)cc1: 1
